// provenance: patent US10597388B2

# Test system: blackgrass (Alopecurus myosuroides)
# experiment_description: Test C greenhouse herbicide test, pre- and postemergence
# Format: in vivo
# test_conditions: Preemergence, 125 g ai/ha; scale 0 to 100, 0 is no effect, 100 is complete control
Use 1.0 when the recorded Plant response rating, Blackgrass is no lower than 60; use 0.0 when it is lower.

Look over these answered cases.
[
  {
    "entry_smiles": "C#CCOC(=O)Oc1c(C)nn(C)c(=O)c1-c1c(C)sc2ccc(C)cc12",
    "class": 1.0
  },
  {
    "entry_smiles": "CCCC(=O)Oc1c(C)nn(C)c(=O)c1-c1c(C)sc2c(C)cc(C)cc12",
    "class": 1.0
  },
  {
    "entry_smiles": "COC(=O)Oc1c(C)nn(C)c(=O)c1-c1c(C)sc2c(C)cc(C)cc12",
    "class": 1.0
  },
  {
    "entry_smiles": "CSCC(=O)Oc1c(C)nn(C)c(=O)c1-c1cccc2ccccc12",
    "class": 0.0
  }
]

Does the reported Plant response rating, Blackgrass for CCC(=O)Oc1c(Cl)nn(C)c(=O)c1-c1c(C)sc2ccc(Cl)cc12 fall at or above the 60 mark?
0.0

Now give it for CCOC(=O)Oc1c(C)nn(C)c(=O)c1-c1c(C)sc2c(C)cc(C)cc12 too.
1.0

Continue with CCOC(=O)Oc1c(C)nn(C)c(=O)c1-c1c(C)sc2ccc(C)cc12
1.0

Another compound: COc1nn(C)c(=O)c(-c2c(C)ccc3ccccc23)c1OC(C)=O
0.0

Next record, please: Cc1ccc2ccccc2c1-c1c(O)c(Cl)nn(C)c1=O
0.0

Cool, now CCC(=O)Oc1c(C)nn(C)c(=O)c1-c1c(C)sc2c(C)cc(C)cc12
1.0

* * *

# Tested on: mustard, wild (wild mustard, Sinapis arvensis)
# experiment_description: Test D controlled growth environment herbicide test, pre- and postemergence
# Format: in vivo
# test_conditions: Postemergence, 250 g ai/ha; scale 0 to 100 (0 no effect, 100 complete control)
result_type: Plant response rating, Mustard, Wild
When you answer, write just the number.

[
  {
    "molecule": "CCOC(=O)Oc1c(C)nn(C)c(=O)c1-c1c(C)ccc2ccccc12 [Compound 73]",
    "result_type": "Plant response rating, Mustard, Wild",
    "measurement": 100
  },
  {
    "molecule": "CC(=O)Oc1c(Br)nn(C)c(=O)c1-c1c(C)ccc2ccccc12 [Compound 129]",
    "result_type": "Plant response rating, Mustard, Wild",
    "measurement": 100
  },
  {
    "molecule": "C#CCOC(=O)Oc1c(C)nn(C)c(=O)c1-c1c(C)sc2ccc(C)cc12 [Compound 87]",
    "result_type": "Plant response rating, Mustard, Wild",
    "measurement": 60
  },
  {
    "molecule": "COc1nn(C)c(=O)c(-c2c(C)ccc3ccccc23)c1O [Compound 54]",
    "result_type": "Plant response rating, Mustard, Wild",
    "measurement": 100
  }
]

Here is the next item to consider.
Report Plant response rating, Mustard, Wild for CCC(=O)Oc1c(C)nn(C)c(=O)c1-c1c(C)sc2ccc(C)cc12 [Compound 42] tested on mustard, wild (wild mustard, Sinapis arvensis).
80

* * *

# Test system: ryegrass, Italian (Italian ryegrass, Lolium multiflorum)
# experiment_description: Test D controlled growth environment herbicide test, pre- and postemergence
# Assay type: in vivo
# test_conditions: Postemergence, 125 g ai/ha; visual rating on scale 0 (no effect) to 100 (complete control), 14 to 21 d
# Source text: […]
result_type: Plant response rating, Ryegrass, Italian
Enter a number only.

// lookup Plant response rating, Ryegrass, Italian for Cc1cc(C)c2sc(C)c(-c3c(OC(=O)OCCCl)c(C)nn(C)c3=O)c2c1 [Compound 85]
85

One more compound: CCOC(=O)Oc1c(C)nn(C)c(=O)c1-c1c(C)sc2c(C)cc(C)cc12 [Compound 83]
90

Further, for CC(=O)Oc1c(C)nn(C)c(=O)c1-c1c(C)sc2ccc(C)cc12 [Compound 25] ?
85

Cc1cc(C)c2sc(C)c(-c3c(OC(=O)OC(C)C)c(C)nn(C)c3=O)c2c1 [Compound 67] , same question.
98

What about this compound? CCC(=O)Oc1c(C)nn(C)c(=O)c1-c1c(C)sc2c(C)cc(C)cc12 [Compound 28]
80

Next compound up: COc1nn(C)c(=O)c(-c2c(C)ccc3ccccc23)c1O [Compound 54]
90

And what about the compound CC(=O)Oc1c(Br)nn(C)c(=O)c1-c1c(C)ccc2ccccc12 [Compound 129] ?
90

* * *

# System: ryegrass, Italian (Italian ryegrass, Lolium multiflorum)
# experiment_description: Test C greenhouse herbicide test, pre- and postemergence
# Format: in vivo
# test_conditions: Preemergence, 62 g ai/ha; scale 0 to 100, 0 is no effect, 100 is complete control
Here, each record is paired with measured Plant response rating, Ryegrass, Italian data.
Give a plain numeric answer without units written out.

Consider the worked cases shown below.
[
  {
    "entry_smiles": "CC(=O)Oc1c(C)nn(C)c(=O)c1-c1c(C)sc2ccc(C)cc12",
    "Plant response rating, Ryegrass, Italian": 95
  },
  {
    "entry_smiles": "COc1nn(C)c(=O)c(-c2c(C)ccc3ccccc23)c1OC(C)=O",
    "Plant response rating, Ryegrass, Italian": 90
  },
  {
    "entry_smiles": "CCCC(=O)Oc1c(C)nn(C)c(=O)c1-c1c(C)sc2c(C)cc(C)cc12",
    "Plant response rating, Ryegrass, Italian": 70
  },
  {
    "entry_smiles": "COC(=O)Oc1c(Br)nn(C)c(=O)c1-c1c(C)ccc2ccccc12",
    "Plant response rating, Ryegrass, Italian": 95
  },
  {
    "entry_smiles": "CCC(=O)Oc1c(C)nn(C)c(=O)c1-c1c(C)sc2ccc(C)cc12",
    "Plant response rating, Ryegrass, Italian": 90
  }
]

Which Plant response rating, Ryegrass, Italian is reported for this compound? CCC(=O)Oc1c(C)nn(C)c(=O)c1-c1c(C)sc2c(C)cc(C)cc12
90

Another compound: Cc1ccc2ccccc2c1-c1c(O)c(Cl)nn(C)c1=O
95

Can you handle CC(=O)Oc1c(C)nn(C)c(=O)c1-c1c(C)sc2c(C)cc(C)cc12 next?
90

And the next one, C#CCOC(=O)Oc1c(C)nn(C)c(=O)c1-c1c(C)sc2ccc(C)cc12 ?
90

* * *

# Test system: morningglory (Ipomoea coccinea)
# experiment_description: Test C greenhouse herbicide test, pre- and postemergence
# Format: in vivo
# test_conditions: Preemergence, 125 g ai/ha; scale 0 to 100, 0 is no effect, 100 is complete control
result_type: Plant response rating, Morningglory
Number only, no unit.

[
  {
    "entry_smiles": "CCC(=O)Oc1c(C)nn(C)c(=O)c1-c1c(C)sc2c(C)cc(C)cc12",
    "Plant response rating, Morningglory": 98
  },
  {
    "entry_smiles": "Cc1cc(C)c2sc(C)c(-c3c(OC(=O)OCCCl)c(C)nn(C)c3=O)c2c1",
    "Plant response rating, Morningglory": 95
  },
  {
    "entry_smiles": "COc1nn(C)c(=O)c(-c2c(C)ccc3ccccc23)c1OC(=O)OC(C)C",
    "Plant response rating, Morningglory": 90
  },
  {
    "entry_smiles": "CCCC(=O)Oc1c(C)nn(C)c(=O)c1-c1c(C)sc2c(C)cc(C)cc12",
    "Plant response rating, Morningglory": 98
  }
]

Plant response rating, Morningglory for CC(=O)Oc1c(C)nn(C)c(=O)c1-c1c(C)sc2ccc(C)cc12 ?
95

Now this one: Cc1ccc2sc(C)c(-c3c(O)c(C)nn(C)c3=O)c2c1
100

For CSCC(=O)Oc1c(C)nn(C)c(=O)c1-c1cccc2ccccc12 then?
95

Here is the next compound: COC(=O)Oc1c(C)nn(C)c(=O)c1-c1c(C)sc2c(C)cc(C)cc12
90

* * *

# System: blackgrass (Alopecurus myosuroides)
# experiment_description: Test C greenhouse herbicide test, pre- and postemergence
# Assay type: in vivo
# test_conditions: Postemergence, 31 g ai/ha; scale 0 to 100 (0 no effect, 100 complete control)
As shown below, each of these molecules has a reported Plant response rating, Blackgrass value.
// no unit string in output, number only

Some solved cases for reference:
[
  {
    "molecule": "CSCC(=O)Oc1c(C)nn(C)c(=O)c1-c1cccc2ccccc12 [Compound 171]",
    "measurement": 5
  },
  {
    "molecule": "Cc1nn(C)c(=O)c(-c2cccc3ccc(C#N)cc23)c1O [Compound 127]",
    "measurement": 0
  }
]

Would you mind telling me what Plant response rating, Blackgrass value was observed for CC(=O)Oc1c(C)nn(C)c(=O)c1-c1c([N+](=O)[O-])ccc2ccccc12 [Compound 164] ?
5

Please answer likewise for CC(=O)Oc1c(C)nn(C)c(=O)c1-c1c(C)cc(C)c2ccccc12 [Compound 153]
80
